test system: PD-L1 mRNA; experiment: Activity evaluation B in human PD-L1 model mice (liver PD-L1 mRNA, qPCR); type: in vivo; details: liver tissue, 10 mg/kg subcutaneous, day 14, vs PBS group
Kindly return true if reported PD-L1 expression inhibition rate (%), Day 14 after treatment, Avg is no lower than 60%; return false if it is lower.

Answer whether PD-L1 expression inhibition rate (%), Day 14 after treatment, Avg of M12L01: dsRNA ligand conjugate; modified sense SEQ ID NO 55 with L01 ligand (GalNAc), antisense SEQ ID NO 56 (sense ATTTACTGTCACGGTTCCCAA; antisense TTGGGAACCGTGACAGTAAATGC; 2'-O-methyl and 2'-fluoro modified, full pattern not given here, GalNAc L01 on sense) is greater than or equal to 60%.
true

For M07L01: dsRNA ligand conjugate; modified sense SEQ ID NO 43 with L01 ligand (GalNAc), antisense SEQ ID NO 44 (sense AATGAAAGGACTCACTTGGTA; antisense TACCAAGTGAGTCCTTTCATTTG; 2'-O-methyl and 2'-fluoro modified, full pattern not given here, GalNAc L01 on sense) then?
false

Try this substance next: M08L01: dsRNA ligand conjugate; modified sense SEQ ID NO 45 with L01 ligand (GalNAc), antisense SEQ ID NO 46 (sense GCTGCATGATCAGCTATGGTA; antisense TACCATAGCTGATCATGCAGCGG; 2'-O-methyl and 2'-fluoro modified, full pattern not given here, GalNAc L01 on sense)
false

// query: M10L01: dsRNA ligand conjugate; modified sense SEQ ID NO 49 with L01 ligand (GalNAc), antisense SEQ ID NO 50 (sense ATTGGTCATCCCAGAACTACA; antisense TGTAGTTCTGGGATGACCAATTC; 2'-O-methyl and 2'-fluoro modified, full pattern not given here, GalNAc L01 on sense)
true

Would you kindly repeat that for M11L01: dsRNA ligand conjugate; modified sense SEQ ID NO 51 with L01 ligand (GalNAc), antisense SEQ ID NO 52 (sense TATTTATTTTGAGTCTGTG; antisense CACAGACTCAAAATAAATAGG; 2'-O-methyl and 2'-fluoro modified, full pattern not given here, GalNAc L01 on sense) ?
true
